protocol: yeast display, Sf9 membrane polyspecificity reagent, FACS + sequencing; frameworks hold sequencing errors
reported.endpoint: polyreactivity (PSR sort gate)

Below, 5 sequences whose answers are already recorded.
QVQLVESRGVLVQAGGSLRLSCAASGSIFEWYAMGWYRQAPGKERELVAVISDGSTNYADSVKGRFTISRDNAKKTVYLQMNSLKPEDPAVSYCAADPFDGYSSSEYDYWGQGTQVTVSS	low polyreactivity
QVQLVESGGGLVQAGGSLRLSCAASGRTFAKYAMGWSRPAPGKERELVAAIRWSGGSTYYADSVKGRFTISRDNAKNTVYLQMTSLKPEDTAVYYCATERFVLGLGYDYWGQGTQVTVSS	high polyreactivity
QLQLEESGGGLVQAGGSLRLSCAASVRTLRRNAMGWYRQAPGKEKELVAAITGSGGSTYYADSVKGRFTISRDNAKNTVYLQMNSLKPEDTAVYYCAARGPSRRRDGSDYWGQGTQVTVSS	high polyreactivity
QVQLVESGGGLVQAGGSLRLSCAASGRTLRYYAMGWYRQAPGTERELVASISIGGSTYYADSVKGRFTISRDNAKNTVYLQMHSQKPEATAVYYCATDYSTSGYGYWGQGTQVTVST	low polyreactivity
QVQLVESGGGLVQAGGSLRLSCSASGSTFHRYAMGWYIQAPGKERELVARINGSGGSTYYADSVKGRFTISRDNAKNTVYLQMNSLKPEDSAVYYCAADGLYYTYGYDYWGQGTQVTVSS	low polyreactivity

Note: attention shifts to another entry.
Report polyreactivity (PSR sort gate) for QVQLVESGGGLVQAGGSLRLSCAASGNIFGAYAMGWYRQAPGKERELVATINWSGTRTYADSVKGRFTISRDNAKNTVYLQMNSLKPEDTAVYYCATKIAGRYRTRYYWGQGTQVTVSS please.
high polyreactivity
